Tested on: Eubacterium rectale
assay-explanation: growth AUC relative to DMSO control (median of replicates) (fraction); higher = more growth (less inhibition), active = hit call of the paper
condition-notes: 20 µM; 24 h
Would you mind telling me the reported growth AUC of each entry?
Could you respond with only the numeric value?

State the recorded growth AUC for this entry: `CCOC(=O)c1ccccc1S(=O)(=O)NC(=O)Nc1nc(Cl)cc(OC)n1` 1.05

Same question for COP(N)(=O)SC (configuration not stated) please. 1.08

Same question for `CCSCc1ccccc1OC(=O)NC` please. 0.933

Same question for `O=[N+]([O-])C(Br)(CO)CO` please. 0.949

Same question for `ClC1=C(Cl)[C@]2(Cl)[C@@H]3[C@@H]4C[C@@H]([C@H]5O[C@@H]45)[C@@H]3[C@@]1(Cl)C2(Cl)Cl` please. 0.999

Same question for `CCc1cccc(CC)c1N(COC)C(=O)CCl` please. 0.993

Same question for `Clc1ccc(Cl)c(Cl)c1` please. 1.1

Same question for `CC(C)(C)c1ccc(CCOc2ncnc3ccccc23)cc1` please. 0.905

Same question for `CN(C)C(=S)[S-].CN(C)C(=S)[S-].[Zn+2]` please. 0.563

Same question for `N#Cc1nn(-c2c(Cl)cc(C(F)(F)F)cc2Cl)c(N)c1S(=O)(=O)C(F)(F)F` please. 0.945

Same question for `CCOP(=S)(OCC)SCCS(=O)(=O)CC` please. 1.02

Same question for `CCOP(=O)(Sc1ccccc1)Sc1ccccc1` please. 1.13
